Data provenance is ChEMBL document CHEMBL5584289.

LC50 at 24 h: recorded values
# testDetails: Acute toxicity in zebrafish embryos assessed as lethal concentration compound measured for every 24 hrs in 96 hrs
# Set-up: species or system Danio rerio
# statedConditions: in vivo
Peptide text beside a SMILES is read from it.
Please state the number and follow it with the unit.

Check out these entries, answers already filled in.
[[record]]
compound = "COc1cc2c(oc3c(O)cccc32)c(OC)c1OC"
val = "37 µg/mL"

[[record]]
compound = "NCCCC[C@H](NC(=O)[C@H](Cc1cnc[nH]1)NC(=O)CN)C(=O)O (H-Gly-His-Lys-OH)"
val = "30 µg/mL"

[[record]]
compound = "COc1ccc2c(c1)oc1c(OC)c(O)c(OC)cc12"
val = "30 µg/mL"


query: So what does the record say about LC50 at 24 h for COc1c(O)c(OC)c2c(oc3c(O)cccc32)c1OC ?
result: 4 µg/mL
